Attribution: patent US20170247475A1

- target_or_test_system: T1, recombinant human VEGF165 (human, UniProt P15692-4 27-191)
- T1 construct: also called hVEGF165; rhVEGF165
- T1 sequence (P15692 other isoform, or with tags, fused parts or gaps limits assumed): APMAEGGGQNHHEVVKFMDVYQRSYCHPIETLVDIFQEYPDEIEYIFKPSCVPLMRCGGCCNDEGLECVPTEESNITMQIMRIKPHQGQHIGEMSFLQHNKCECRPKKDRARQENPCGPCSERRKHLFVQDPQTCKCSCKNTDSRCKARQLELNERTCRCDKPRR
- measurement_description: Biacore, periplasmic extract on hVEGF165 chip, two phase decay fit
In this section, each of the binders is paired with its reported % fast.
Write the answer as a number in %, unit excluded.

>  <binder>
VEGFBII23A09 (VHH, periplasmic extract) VHH: EVQLVESGGGLVQPGDSLKLSCAFSGRTFGSYSMGWFRQAQGKEREFVVAISSSGGYIYDSVSLEGRFTISRDNSKNTVYLQTPSLKPEDTAVYYCAASRAYGSSRLRLPDTYDYWGQGTQVTVSS

>  <units_of_measure>
%

>  <readout_value>
20

$$$$
>  <binder>
VEGFBII40F02 (VHH, periplasmic extract) VHH: EVQLVESGGGLVQPGDSLKLSCAFSGRTFSSYSMAWFRQAQGKEREFVVAISSGGFIYDAVSLEGRFTISRDNTKNTVYLQTPSLKPEGTAVYYCAASRAYGSSRLRLADTYDYWGQGTQVTVSS

>  <units_of_measure>
%

>  <readout_value>
20

$$$$
>  <binder>
VEGFBII62D10 (VHH, periplasmic extract) VHH: EVQLVESEGGLVQAGDSLRLSCAASGRTFSSYSMGWFRQAQGKEREFVVAISSSGNYKYDSVSLEGRFTISRDNTKNTVYLQINSLKPEDTAVYYCAASRAYGSSRLRLGDTYDYWGQGTQVTVSS

>  <units_of_measure>
%

>  <readout_value>
40

$$$$

Q: Need % fast, item VEGFBII31C07 (VHH, periplasmic extract) VHH: EVQLVESGGGLVQTGDSLRLSCAASGGTFSSYSMGWFRQAQGKEREFVVAISSSGGYIYDSVSLEGRFTISRDNTKNTVYLQTPSLKPEDTADYYCAASRAYGSSRLRLADTYDYWGQGTQVTVSS
Result: 25
